// provenance: ChEMBL document CHEMBL1201862

Tested on: TK-10
Measurement Protocol: NCI tumour cell line growth inhibition, 48 h
Calls of active or inactive are those of the source. Cut-off read from the data, not from the text of the source: active = GI50 up to about 1.1 µM and inactive = higher. Square brackets hold non-standard residues; d marks the D form. Peptide text beside a SMILES is read from it. * marks the point of attachment. X26 = COC1=CC(=O)N(C(=O)[C@@H](O*)C(C)C)[C@H]1Cc1ccccc1; Bn2Val = CC(C)[C@@H](C(=O)*)N(Cc1ccccc1)Cc1ccccc1; NMeV = CN[C@H](C(=O)O)C(C)C; dNMeA = CN[C@H](C)C(=O)O
Outcome field: choose from 1 = active, 0 = inactive

Hi, do you know how `COc1cc2nncc(Sc3cnnc4ccccc34)c2cc1OC` came out in this test?
0

Hi, do you know how COCN1C(=O)C2CC(/C=C/C(N)=O)=CN2C(=O)c2ccccc21 (stereo unspecified) came out in this test?
0

Hi, do you know how C=C1C(C(O)C[C@H](C)C2O[C@@]3(CCCCO3)CCC2C)O[C@@H]2CCC3(CCC(/C=C/[C@@H](C)C4CC(C)=CC5(O4)O[C@H](C[C@](C)(O)C(=O)O)CCC5O)O3)OC2[C@@H]1O (stereo partly specified) came out in this test?
1

Hi, do you know how COC1=CC(=O)N(C(=O)[C@@H](OC(=O)[C@@H](C)N(C)C(=O)[C@@H]2CCCN2C(=O)[C@H](C(C)C)N(C)C(=O)[C@@H](NC(=O)[C@H](C(C)C)N(Cc2ccccc2)Cc2ccccc2)C(C)C)C(C)C)[C@H]1Cc1ccccc1 (Bn2Val-V[NMeV]P[dNMeA]-X26) came out in this test?
0

Hi, do you know how C[C@]12CC[C@H](OCCC#N)CC1=CC[C@@H]1C2CC[C@]2(C)/C(=N/OCCC#N)CCC12 (stereo partly specified) came out in this test?
0

Hi, do you know how `Cc1nc2c(=O)n(-c3ccccc3)c3ccccc3c2o1` came out in this test?
0

Hi, do you know how CC(C)(C)OC(=O)C(C#N)C(=O)c1ccc(C(=O)O)[nH]1 (stereo unspecified) came out in this test?
0

Hi, do you know how COC1(C)C(=O)N2C1N(C(=O)OCc1ccccc1)CC2(C)C (stereo unspecified) came out in this test?
0

Hi, do you know how `NC(=O)c1nnn(Cc2cc(Cl)c(C(=O)c3ccc(Cl)cc3)c(Cl)c2)c1N` came out in this test?
0

Hi, do you know how `N#Cc1c(-c2ccc(Cl)cc2)cc(-c2ccc(Nc3ccnc4cc(C(F)(F)F)ccc34)cc2)[nH]c1=O` came out in this test?
0

Hi, do you know how `OCCNCN(CNCCO)c1nc(N(CNCCO)CNCCO)nc(N(CNCCO)CNCCO)n1` came out in this test?
1
